Listing of recorded activity coefficient by entry.
- ASSAY_EXPLANATION: activity coefficient (dimensionless); of the first substance listed, at infinite dilution; xn = mol fraction of the nth substance listed
- PARTICULARS: 298.15 K; 238 kPa; Liquid; Chromatography; x1 = 0
Answer field: number only, no words.

Completed entries (count: 5):
{"COMPOUND": "Clc1ccccc1 [chlorobenzene] + CNC=O", "activity coefficient": 5.2}
{"COMPOUND": "c1ccccc1 [benzene] + CNC=O", "activity coefficient": 4.8}
{"COMPOUND": "Fc1ccccc1 [fluorobenzene] + CNC=O", "activity coefficient": 4}
{"COMPOUND": "c1ccc2ccccc2c1 [naphthalene] + CNC=O", "activity coefficient": 26.7}
{"COMPOUND": "Cc1ccc(C(C)C)cc1 [1-(1-methylethyl)-4-methylbenzene] + CNC=O", "activity coefficient": 22.3}

q: // lookup activity coefficient for Cc1cccc(C)c1 [1,3-dimethylbenzene] + CNC=O
a: 10.8

q: Return reported activity coefficient; argument: CCCCCCCC [octane] + CNC=O
a: 83.9

q: Recorded activity coefficient of Cc1ccc(C)cc1 [1,4-dimethylbenzene] + CNC=O , please.
a: 10.4

q: Sample C=CC1CC=CCC1 (centres undefined) [4-ethenylcyclohexene] + CNC=O — what was its activity coefficient?
a: 16.6

q: Endpoint output: activity coefficient of C=CCCCCC=C [1,7-octadiene] + CNC=O . Value?
a: 23

q: Given the entry CCCCCCCCCC [decane] + CNC=O , report its measured activity coefficient.
a: 194

q: I am curious: what activity coefficient value has been reported for Cc1ccccc1 [toluene] + CNC=O ?
a: 7

q: activity coefficient for Brc1ccccc1 [bromobenzene] + CNC=O ?
a: 6.3

q: # activity coefficient lookup, item CCCCCCCCCCC [undecane] + CNC=O
a: 318

q: Entry CCCCCCC [heptane] + CNC=O : reported activity coefficient = ?
a: 60.5

q: Need activity coefficient, item CCCCCCCCC [nonane] + CNC=O
a: 122

q: // query activity coefficient value for entry CCCCCC [hexane] + CNC=O
a: 38.6

q: # get_value(readout='activity coefficient', item= Cc1ccccc1C [1,2-dimethylbenzene] + CNC=O )
a: 9.8

q: Endpoint output: activity coefficient of C1CCCCCCC1 [cyclooctane] + CNC=O . Value?
a: 42.3
